tested on: Escherichia coli; experiment: Antibacterial activity against Escherichia coli by disk diffusion assay; assay type: functional
Active and inactive are the calls of the source. The calls are words filed in the database; no cut-off is given here.
Parameter Measured: inhibition zone (IZ)

> print(dat)
                                   compound   reading
1  O=C(O)c1ccc(-n2cc(/C=N/Nc3ccc(Cl)cc3Cl)c(-c3ccccc3)n2)cc1  inactive
2  O=C(O)c1ccc(-n2cc(/C=N/Nc3ccccc3)c(-c3ccccc3)n2)cc1  inactive
3  O=C(N[C@H](CO)[C@H](O)c1ccc([N+](=O)[O-])cc1)C(Cl)Cl [CHLORAMPHENICOL]     39 mm

---

assay: Cytotoxicity against HEK293 cells; type: cell-based; conditions: human
CC50 listing for selected compounds.

### Prompt Look at this compound and give its reported CC50. `O=C(O)c1ccc(-n2cc(CNc3ccc(F)c(C(F)(F)F)c3)c(-c3ccccc3)n2)cc1`
### Response > 32 µg/mL

### Prompt Now the same for `Cc1ccc(NCc2cn(-c3ccc(C(=O)O)cc3)nc2-c2ccccc2)cc1Cl`
### Response 20 µg/mL

### Prompt `O=C(O)c1ccc(-n2cc(CNc3ccc(Cl)c(C(F)(F)F)c3)c(-c3ccccc3)n2)cc1` , same question.
### Response > 32 µg/mL

### Prompt Also, `O=C(O)c1ccc(-n2cc(CNc3ccc(Br)c(C(F)(F)F)c3)c(-c3ccccc3)n2)cc1` please.
### Response > 32 µg/mL

### Prompt Now try `O=C(O)c1ccc(-n2cc(CNc3cc(C(F)(F)F)cc(C(F)(F)F)c3)c(-c3ccccc3)n2)cc1` .
### Response > 32 µg/mL

### Prompt Follow-up item: `O=C(O)c1ccc(-n2cc(/C=N/Nc3ccc(Cl)cc3)c(-c3ccccc3)n2)cc1`
### Response > 32 µg/mL

---

tested on: Acinetobacter baumannii; assay: Antibacterial activity against Acinetobacter baumannii ATCC 19606 by disk diffusion assay; type: functional, ATCC 19606 = CIP 70.34 = JCM 6841
Parameter Measured: inhibition zone (IZ) (mm)
Provide the reading as a plain figure in mm.

> print(dat)
                           structure.string          target.of.assay    parameter.measured   u  reading
1  O=C(O)c1ccc(-n2cc(/C=N/Nc3ccc(Br)cc3)c(-c3ccccc3)n2)cc1  Acinetobacter baumannii  inhibition zone (IZ)  mm       42

### Prompt Quick one: inhibition zone (IZ) of `O=C(O)c1ccc(-n2cc(/C=N/Nc3ccc([N+](=O)[O-])cc3)c(-c3ccccc3)n2)cc1` ?
### Response 22

---

system: Escherichia coli; assay: Antibacterial activity against Escherichia coli by disk diffusion assay; assay type: functional
The source made the active and inactive calls. No cut-off for these calls is given here.
Parameter Measured: inhibition zone (IZ)

> print(dat)
                           structure.string    parameter.measured   reading
1  O=C(O)c1ccc(N/N=C/c2cn(-c3ccc(C(=O)O)cc3)nc2-c2ccccc2)cc1  inhibition zone (IZ)  inactive
2  O=C(O)c1ccc(-n2cc(/C=N/Nc3ccc([N+](=O)[O-])cc3)c(-c3ccccc3)n2)cc1  inhibition zone (IZ)  inactive
3  O=C(O)c1ccc(-n2cc(/C=N/Nc3ccc(Br)cc3)c(-c3ccccc3)n2)cc1  inhibition zone (IZ)  inactive
4  O=C(O)c1cn(C2CC2)c2cc(N3CCNCC3)c(F)cc2c1=O  inhibition zone (IZ)     39 mm
5  N/N=C/c1cn(-c2ccc(C(=O)O)cc2)nc1-c1ccccc1  inhibition zone (IZ)  inactive
6  CN1CCN(/N=C/c2cn(-c3ccc(C(=O)O)cc3)nc2-c2ccccc2)CC1  inhibition zone (IZ)  inactive
7  O=C(O)c1ccc(-n2cc(/C=N/Nc3ccc(Cl)cc3)c(-c3ccccc3)n2)cc1  inhibition zone (IZ)      8 mm
8  O=C(O)c1ccc(-n2cc(/C=N/Nc3ccc(F)cc3)c(-c3ccccc3)n2)cc1  inhibition zone (IZ)      8 mm

// moving on: another record for inhibition zone (IZ)
### Prompt Fill in the recorded inhibition zone (IZ) for this compound, with Escherichia coli as test system: `O=C(O)c1ccc(-n2cc(/C=N/Nc3ccccc3F)c(-c3ccccc3)n2)cc1`
### Response inactive
